What LE was measured for each of the following?
- target.system: PqsR (Pseudomonas aeruginosa, UniProt Q9I4X0)
- measurement.notes: biochemical
- Assay type: binding
- Design: H6SUMOPqsRc87 and T265A mutant H6SUMOPqsRc87 for ITC studies was expressed; made in house; host or cells: E. coli BL21 (λDE3)
- experimental.conditions: Table 1; LE=−ΔG/(heavy atom count)
- Sequence (Q9I4X0 87-332): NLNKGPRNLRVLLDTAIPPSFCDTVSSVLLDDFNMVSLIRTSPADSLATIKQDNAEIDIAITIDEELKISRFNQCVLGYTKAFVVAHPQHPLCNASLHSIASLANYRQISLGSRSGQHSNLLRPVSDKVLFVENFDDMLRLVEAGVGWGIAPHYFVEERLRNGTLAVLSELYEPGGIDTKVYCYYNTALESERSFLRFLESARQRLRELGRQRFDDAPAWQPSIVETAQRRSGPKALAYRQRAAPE
Reply with the number, then its unit.

Data request: So what's the measured LE for this one? Nc1cccc(C(F)(F)F)n1 [Compound 7]
Data returned: 0.70 kcal/mol

Data request: And the next one, CC(C)(C)c1ccc(C(=O)NO)cc1 [Compound 1] ?
Data returned: 0.53 kcal/mol

Data request: Now give it for Nc1cccc(Br)n1 [Compound 3] too.
Data returned: 0.85 kcal/mol

Data request: Entry to check: Nc1cc(Br)ccn1 [Compound 5]
Data returned: 0.80 kcal/mol

Data request: Next compound up: Nc1nnc(-c2cccc(C(F)(F)F)c2)o1 [Compound 2]
Data returned: 0.50 kcal/mol

###

Answer each item with its documented ΔH.
- target.system: PqsR (Pseudomonas aeruginosa, UniProt Q9I4X0)
- measurement.notes: biochemical
- Format: binding
- Set-up: H6SUMOPqsRc87 and T265A mutant H6SUMOPqsRc87 for ITC studies was expressed; made in house; host or cells: E. coli BL21 (λDE3)
- experimental.conditions: Table 1; ITC at 298 K

Data request: Given the entry Nc1nnc(-c2cccc(C(F)(F)F)c2)o1 [Compound 2] , what ΔH was observed with PqsR (Pseudomonas aeruginosa, UniProt Q9I4X0)?
Data returned: -8.5 ± 0.5 kcal/mol

Data request: Another compound: Nc1cc(Br)ccn1 [Compound 5]
Data returned: -5.8 ± 0.1 kcal/mol

Data request: Can you handle Nc1cccc(Br)n1 [Compound 3] next?
Data returned: -9.3 ± 0.4 kcal/mol

Data request: Subsequent entry: CC(C)(C)c1ccc(C(=O)NO)cc1 [Compound 1]
Data returned: -8.9 ± 0.2 kcal/mol

###

- target.system: PqsR (Pseudomonas aeruginosa, UniProt Q9I4X0)
- measurement.notes: PqsR β-galactosidase reporter gene assay in E. coli
- Format: cell-based
- Parameters: expressed in transfected cells; host or cells: E. coli DH5α carrying plasmid pEAL08-2
- experimental.conditions: in the presence of 50 nM PQS; n.i.=no inhibition (activity≤15 %)
experimental.readout: IC50 (inverse agonistic/antagonistic activity)

{"compound": "CC(=O)Nc1cccc(C(F)(F)F)n1 [Compound 8]", "reported.measurement": "n.i."}
{"compound": "Nc1cc(C#CC2CC2)cc(C(F)(F)F)n1 [Compound 9]", "reported.measurement": "n.i."}
{"compound": "Nc1cc(N2CCC(c3ccc(F)cc3)C2)cc(C(F)(F)F)n1 (stereo not shown) [Compound 18]", "reported.measurement": "n.i."}
